Listed below: logP values for each entry.
The reply should be a number, written without any unit.

record.smiles: O=C(NCc1ccccn1)c1cc(F)ccc1O
logP: 1.76
//
record.smiles: COc1cccc(C(=O)NCc2ccccc2)c1O
logP: 2.39
//
record.smiles: O=C(NCc1ccccc1)c1ccc(Cl)cc1O
logP: 3.08
//
record.smiles: Cc1ccc(C(=O)NCc2cccnc2)c(O)c1
logP: 1.67
//
record.smiles: O=C(NCc1ccccn1)c1cc(Cl)ccc1O
logP: 2.16

Input line: Give the measured logP of O=C(NCc1cccnc1)c1cc(F)ccc1O .
Output line: 1.34

Input line: Give the measured logP of O=C(NCc1ccccc1)c1cc(Br)cc(Br)c1O .
Output line: 4.18

Input line: Give the measured logP of O=C(NCc1ccccc1)c1cc(Cl)ccc1O .
Output line: 3.08

Input line: Give the measured logP of Cc1cccc(C(=O)NCc2ccccn2)c1O .
Output line: 2.09

Input line: Give the measured logP of O=C(NCc1ccccc1)c1ccccc1O .
Output line: 2.52

Input line: Give the measured logP of O=C(NCc1ccccn1)c1cc(Br)cc(Br)c1O .
Output line: 3.26

Input line: Give the measured logP of O=C(NCc1cccnc1)c1ccc(Cl)cc1O .
Output line: 1.74

Input line: Give the measured logP of O=C(NCc1cccnc1)c1cc(Br)cc(Br)c1O .
Output line: 2.84

Input line: Give the measured logP of O=C(NCc1ccccc1)c1cc(Br)ccc1O .
Output line: 3.53

Input line: Give the measured logP of O=C(NCc1cccnc1)c1cc(Cl)ccc1O .
Output line: 1.74

Input line: Give the measured logP of O=C(NCc1cccnc1)c1cc(Br)ccc1O .
Output line: 2.01

Input line: Give the measured logP of COc1cccc(C(=O)NCc2ccccn2)c1O .
Output line: 1.48

====

Assay: method code SF, from DOI: 10.2478/s11696-010-0084-9
Listed below: logP values for each entry.
The reply should be a number, written without any unit.

See these solved cases before continuing.
record.smiles: O=C(NCc1cccnc1)c1ccccc1O
logP: 1.18
//
record.smiles: O=C(NCc1cccnc1)c1cc(Cl)cc(Cl)c1O
logP: 2.3
//
record.smiles: COc1ccc(C(=O)NCc2cccnc2)c(O)c1
logP: 1.06
//
record.smiles: Cc1cccc(C(=O)NCc2cccnc2)c1O
logP: 1.67
//
record.smiles: Cc1ccc(C(=O)NCc2ccccn2)c(O)c1
logP: 2.09
//
record.smiles: O=C(NCc1ccccn1)c1ccc(Cl)cc1O
logP: 2.16
//
record.smiles: O=C(NCc1ccccn1)c1cc(Br)ccc1O
logP: 2.43
//
record.smiles: O=C(NCc1ccccc1)c1cc(Cl)cc(Cl)c1O
logP: 3.64

We now examine a further compound.
Input line: Give the measured logP of COc1cccc(C(=O)NCc2cccnc2)c1O .
Output line: 1.06
